# literature pull: Fatty-acid amide hydrolase 1 (Mus musculus) IC50
endpoint: IC50

- CC(=O)N(C)c1cnn(C(=O)N2CCC3(CCN(Cc4cc(N5CCOCC5)cc(C(F)(F)F)c4)C3)C2)c1 (stereo not drawn): ≤ 100 nM
- O=C(N1CCN(c2cccc(C(F)(F)F)c2)CC1)n1nnc2ccc(-c3ccc(Cl)cc3)nc21: 2 nM
- CC(=O)N(C)c1cnn(C(=O)N2CCC3(CCN(Cc4cc(Cl)ccc4Cl)C3)C2)c1 (racemic): ≤ 100 nM
- CC(=O)N(C)c1cnn(C(=O)N2CC3CN(Cc4ccc(Cl)c(Cl)c4)CC3C2)c1 (stereo not drawn): ≤ 100 nM
- CC(=O)N(C)c1cnn(C(=O)N2CC3CN(Cc4cc(Cl)cc(N5CCOCC5)c4)CC3C2)c1 (stereo not drawn): ≤ 100 nM
- CCCCCCCNC(=O)OCC(=O)NC: 91 nM
- CC(=O)N(C)c1cnn(C(=O)N2CCN(Cc3ccc(N4CCCC4)cc3)CC2)c1: 100 to 1000 nM
- CC(=O)N(C)c1cnn(C(=O)N2CC3CN(Cc4ccccc4C)CC3C2)c1 (stereo not drawn): ≤ 100 nM
- CNC(=O)COC(=O)NCCc1ccc(-c2ccc(Cl)cc2)cc1: 63 nM
- CC(=O)N(C)c1cnn(C(=O)N2CC3CN(Cc4ccc(N5CCCC5)c(Cl)c4)CC3C2)c1 (stereo not drawn): ≤ 100 nM
- CC(=O)N(C)c1cnn(C(=O)N2CCC3(CCN(Cc4cccc(Cl)c4)C3)CC2)c1: 100 to 1000 nM
- CNC(=O)COC(=O)NC1CCCCCCC1: 696 nM
- CC(=O)N(C)c1cnn(C(=O)N2CC3(CCN(Cc4ccc(N5CCOCC5)cc4Cl)CC3)C2)c1: 100 to 1000 nM
- CNC(=O)COC(=O)N1CCN(c2ccc(-c3ccc(Cl)cc3)cc2)CC1: 20 nM
- CS(=O)(=O)Nc1cnn(C(=O)N2CCC3(CC2)CN(Cc2cc(Cl)ccc2C(F)(F)F)C3)c1: ≤ 100 nM
- O=C(CCCCCCc1ccccc1)c1ncco1: 2500 nM
- CC(=O)N1CCCc2cccc(CN3CCC4(CCN(C(=O)OC(C(F)(F)F)C(F)(F)F)CC4)C3)c21: > 1000 nM
- CC(=O)N(C)c1cnn(C(=O)N2CCC3(CC2)CN(Cc2cccc(C(F)(F)F)c2)C3)c1: 100 to 1000 nM
- CS(=O)(=O)Nc1cnn(C(=O)N2CCN(Cc3ccc(N4CCCC4)cc3C(F)(F)F)CC2)c1: 1000 to 10000 nM
- CC(=O)N(C)c1cnn(C(=O)N2C[C@H]3C[C@@H](N(C)Cc4ccccc4Cl)C[C@H]3C2)c1: 100 to 1000 nM
- CC(=O)Nc1cnn(C(=O)N2CCN(Cc3ccc(C(F)(F)F)cc3N3CCCC3)CC2)c1: 1000 to 10000 nM
